Target: S1P1/EDG1 (Homo sapiens, UniProt P21453)
Sequence (P21453 whole entry): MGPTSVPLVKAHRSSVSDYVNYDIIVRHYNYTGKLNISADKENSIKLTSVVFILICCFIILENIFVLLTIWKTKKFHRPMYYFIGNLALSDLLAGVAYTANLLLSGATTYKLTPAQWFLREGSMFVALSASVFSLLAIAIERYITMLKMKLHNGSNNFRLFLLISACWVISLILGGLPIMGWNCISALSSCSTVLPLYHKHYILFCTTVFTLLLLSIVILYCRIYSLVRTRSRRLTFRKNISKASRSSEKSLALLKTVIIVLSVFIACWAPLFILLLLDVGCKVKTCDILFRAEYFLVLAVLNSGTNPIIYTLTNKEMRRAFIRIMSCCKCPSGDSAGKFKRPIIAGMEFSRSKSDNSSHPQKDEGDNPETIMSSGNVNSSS
Test: S1P1 CRE-bla CHOK1 reporter assay, inhibition of Forskolin induced cAMP
Type: cell-based
Details: agonist activity range, S1P1 CRE-bla CHOK1, 2 μM Forskolin; read-out: S1P1 ACTIVITY
Excerpt: Generation of S1P1-Mediated Inhibition of cAMP Reporter Assay A mammalian expression plasmid containing S1P1/EDG1 cloned into pcDNA3.1 was purchased from Missouri S&T cDNA Resource Centre. […] S1P1/pcDNA3.1 was transfected into the CRE-bla CHO K1 (Invitrogen) cell line, and stable single cell clones were selected using standard techniques. S1P1 CRE-Bla CHOK1 Reporter Assay—Characterization of S1P1 Agonists […]
pEC50: −log10 of the molar value.

compound	pEC50
CC(C)Oc1ccc(-c2nc(-c3cccc4c3CCC4NCCN)no2)cc1C#N (racemic)	9.30 to 10.30
CC(C)Oc1ccc(-c2nc(-c3cccc4c3CC[C@@H]4NCC(=O)N(C)C)no2)cc1C#N	9.30 to 10.30
CC(C)Oc1ccc(-c2nc(-c3cccc4c3CCC4NCCN3CCOCC3)no2)cc1C#N (racemic)	8.30 to 9.30
CC(C)Oc1ccc(-c2nc(-c3cccc4c3CCC4NS(=O)(=O)c3ccccc3)no2)cc1C#N (stereo in doubt)	8.30 to 9.30
CC(C)Oc1ccc(-c2nc(-c3cccc4c3CC[C@H]4NC(=O)N3CCC[C@H](O)C3)no2)cc1C#N	8.30 to 9.30
Cc1c[nH]c(CN[C@H]2CCc3c(-c4noc(-c5ccc(OC(C)C)c(C#N)c5)n4)cccc32)n1	8.30 to 9.30
CNC(=O)CS(=O)(=O)N[C@@H]1CCc2c(-c3noc(-c4ccc(OC(C)C)c(C#N)c4)n3)cccc21	> 10.30
